# measured.target: Protein LANA1 (Human herpesvirus 8 type P (isolate GK18)) (UniProt Q9QR71)
# Sequence (Q9QR71 whole entry, looked up): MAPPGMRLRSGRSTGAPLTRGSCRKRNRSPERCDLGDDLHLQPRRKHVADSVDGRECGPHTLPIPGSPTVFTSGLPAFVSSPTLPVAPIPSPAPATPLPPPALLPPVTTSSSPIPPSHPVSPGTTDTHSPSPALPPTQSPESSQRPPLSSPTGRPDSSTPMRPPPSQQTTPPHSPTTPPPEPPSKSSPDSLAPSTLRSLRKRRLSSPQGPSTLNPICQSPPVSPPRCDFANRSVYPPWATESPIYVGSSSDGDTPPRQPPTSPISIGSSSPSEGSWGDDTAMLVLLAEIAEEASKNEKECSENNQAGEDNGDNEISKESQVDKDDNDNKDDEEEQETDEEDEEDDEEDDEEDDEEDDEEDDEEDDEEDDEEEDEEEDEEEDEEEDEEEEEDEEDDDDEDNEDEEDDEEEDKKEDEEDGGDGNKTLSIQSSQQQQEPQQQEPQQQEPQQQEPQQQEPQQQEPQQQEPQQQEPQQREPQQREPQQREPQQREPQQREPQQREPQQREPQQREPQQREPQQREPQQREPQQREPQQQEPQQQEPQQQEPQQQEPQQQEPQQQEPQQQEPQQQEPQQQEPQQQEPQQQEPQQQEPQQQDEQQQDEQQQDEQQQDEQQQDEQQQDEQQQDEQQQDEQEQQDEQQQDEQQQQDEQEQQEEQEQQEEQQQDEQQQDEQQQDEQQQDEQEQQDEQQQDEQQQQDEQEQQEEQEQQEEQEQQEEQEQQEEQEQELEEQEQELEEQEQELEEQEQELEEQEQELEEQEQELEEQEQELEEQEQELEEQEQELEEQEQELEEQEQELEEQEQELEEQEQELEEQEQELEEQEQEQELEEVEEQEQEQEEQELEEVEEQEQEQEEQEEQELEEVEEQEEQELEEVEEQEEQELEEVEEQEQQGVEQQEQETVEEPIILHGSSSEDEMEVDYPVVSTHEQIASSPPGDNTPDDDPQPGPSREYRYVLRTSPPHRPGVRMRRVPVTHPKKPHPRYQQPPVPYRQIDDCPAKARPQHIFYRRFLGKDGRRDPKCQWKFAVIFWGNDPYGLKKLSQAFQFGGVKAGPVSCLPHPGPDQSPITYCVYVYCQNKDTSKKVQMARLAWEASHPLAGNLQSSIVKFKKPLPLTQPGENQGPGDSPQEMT
# protocol.description: GST-LANA peptide binding to nucleosomes, inhibition – biochemical, ELISA, dry powder samples, orthogonal assay, dose response (AID 588510)
# cond: GST-LANA 1-23 binding to nucleosomes, ELISA 450 nm; series mostly up to 50 µM
Activity calls are given as the source filed them. The rule behind the calls is not given here.
observable: outcome

Before answering, review these 9 worked examples.
CC1Cc2ccccc2N1C(=O)CSc1ncccn1 (stereo not given): inactive
Cc1cc(C)c2nc(C(F)(F)F)nc(NCCCN3CCCC3=O)c2c1: inactive
CC(=O)Nc1cccc(N)c1: inactive
O=S(=O)(Nc1cc(Cl)ccc1N1CCOCC1)c1ccccc1Cl: inactive
Clc1ccc(-c2nnc3sc(-c4ccc(Br)o4)nn23)cc1: inactive
Cc1cc(C)cc(NS(=O)(=O)c2ccc3c(c2)C(C)(C)C(=O)N3C)c1: inactive
Cc1cccc(N2C(=O)c3cccc4c(N(C)CCO)ccc(c34)C2=O)c1: inactive
COc1ccc2ccccc2c1C(O)c1nccn1C (stereo not given): inactive
O=C(CCCN1C(=O)c2cccc3cccc(c23)C1=O)N1CCN(c2ccccc2)CC1: inactive

Now look at this one.
Inquiry: Missing value: outcome, Protein LANA1 (Human herpesvirus 8 type P (isolate GK18)) (UniProt Q9QR71), entry Cc1ccc(Cl)cc1N1CCN(C(=O)C2CCN(S(C)(=O)=O)CC2)CC1 . Fill in?
Reply text: inactive
